# measurement.target: T1, Human cKIT D1-5 (human cKIT tr. variant 2, residues 26-520, C-terminal His tag) (human, UniProt P10721 26-524)
# T1 construct: also called human cKIT ECD; Human c-Kit ECD
# T1 sequence (P10721 other isoform, or with tags, fused parts or gaps mutant limits assumed): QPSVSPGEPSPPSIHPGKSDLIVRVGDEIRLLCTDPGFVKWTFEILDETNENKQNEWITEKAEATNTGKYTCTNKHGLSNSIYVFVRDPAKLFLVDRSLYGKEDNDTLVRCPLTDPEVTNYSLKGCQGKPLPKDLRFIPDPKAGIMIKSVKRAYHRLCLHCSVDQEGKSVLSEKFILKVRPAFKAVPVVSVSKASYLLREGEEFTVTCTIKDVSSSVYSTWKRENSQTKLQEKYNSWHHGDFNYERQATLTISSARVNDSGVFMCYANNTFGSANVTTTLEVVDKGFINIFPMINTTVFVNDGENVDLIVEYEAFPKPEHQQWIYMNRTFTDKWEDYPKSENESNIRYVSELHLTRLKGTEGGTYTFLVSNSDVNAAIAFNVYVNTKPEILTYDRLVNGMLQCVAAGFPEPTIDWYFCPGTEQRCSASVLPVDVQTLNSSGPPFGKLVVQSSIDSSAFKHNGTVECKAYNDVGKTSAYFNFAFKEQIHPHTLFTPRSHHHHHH
# method.description: SPR (Biacore 2000), antibody captured on anti-human Fc, cKIT ECD as analyte, 25 C, 1:1 fit
quantity.measured: pKd
Scale for pKd: -log10 of concentration given in mol/L; no unit attached.

[[record]]
binder = "NEG024 (antibody, human IgG1, kappa, V domains shown, Humanized, optimized variant of 9P3; human IgG1 kappa) VH: EVQLVESGGGLVQPGGSLRLSCAASGFTFSDYYMAWVRQAPGKGLEWVANINQIAGSTYYLDSVRGRFTISRDNAKNSLYLQMNSLRAEDTAVYYCARGDYYGTTYWYFDVWGQGTTVTVSS VL: EIVMTQSPATLSLSPGERATLSCRASQDISNYLNWYQQKPGQAPRLLIYYTSRLQSGIPARFSGSGSGTDYTLTISSLEPEDFAVYYCQQGKKLWSFGGGTKVEIKR"
observed = 8.88


**Query** Given NEG027 (antibody, human IgG1, kappa, V domains shown, Humanized, optimized variant of 9P3; human IgG1 kappa) VH: EVQLVESGGGLVQPGGSLRLSCAASGFTFSDYYMAWVRQAPGKGLEWVASINQNTGSTYYLDSVRGRFTISRDNAKNSLYLQMNSLRAEDTAVYYCARGDYYGTTYWYFDVWGQGTTVTVSS VL: EIVMTQSPATLSLSPGERATLSCRASQDISNYLNWYQQKPGQAPRLLIYYTSRLQSGIPARFSGSGSGTDYTLTISSLEPEDFAVYYCQQGKKLWSFGGGTKVEIKR , state its recorded pKd.
**Result** 8.87

**Query** Subsequent entry: 20376 (antibody, human IgG1, lambda, V domains shown, human IgG1 lambda) VH: QVQLVQSGAEVKKPGSSVKVSCKASGGTFSSYAISWVRQAPGQGLEWMGGIIPMSGRTTYAQKFQGRVTITADESTSTAYMELSSLRSEDTAVYYCARDYGPEAPDYGQSTSYFWYYAFDPWGQGTLVTVSS VL: DIELTQPPSVSVSPGQTASITCSGDNIPSYFVHWYQQKPGQAPVLVIYDDNDRPSGIPERFSGSNSGNTATLTISGTQAEDEADYYCSSWDQDTVVFGGGTKLTVLG
**Result** 8.04

**Query** Try this binder next: anti-cKIT antibody 9P3 (antibody, V domains shown, Hybridoma-derived mouse variable domains; also called murine 9P3) VH: EVRLVESEGGLVQPRSSMKLSCTASGFTFSDYYMAWVRQVPEKGLEWVANINYDGSSTYYLDSLKSRFIISRDNAKNILYLQMSSLKSEDTATYYCARGDYYGTTYWYFDVWGTGTTVTVSS VL: DIQMTQTTSSLSASLGDRVTISCRASQDISNYLNWYQQKPDGTVKLLIYYTSRLQSGVPSRFSGSGSGTDYSLTISNLEQEDIATYFCQQGKKLWSFGGGTKLEIKR
**Result** 7.70
